# target-entity: human GLP-1 receptor (human, UniProt P43220 24-463)
# test-protocol: cell-based or functional assay
Bridge positions count the residues as written; N and C are the ends. Square brackets hold non-standard residues; d marks the D form. Ends that are not written are not given here. Orn = NCCC[C@H](N)C(=O)O
measurement-kind: hGLP-1 R EC50 (cAMP) (nM)
A number alone suffices; assume nM.

Some entries whose results are on file:
HGEGTFTSDLSKYLEEEAVRLFIEFLK[Peg3][Peg3]YGWLDF-NH2 [[Tyr13,Leu14,Phe25]Exendin-4(1-27)-Peg3-Peg3-[Leu4]Gastrin6] :: 0.044
HGEGTFTSDLSKYLEEEAVRLFIEFLR[Peg3]YGWLDF-NH2 [[Arg27,Leu14,Phe25,Tyr13]Exendin-4(1-27)-Peg3-[Leu4]Gastrin6] :: 0.068
HGEGTFTSDLSKQMEEEAVRLFIEWLKNYGWFDF (C-terminal amide) [Exendin-4(1-28)-[Phe4]Gastrin6] :: 0.044
HGEGTFTSDLSKQMEEEAVKLFIEWLKN[Peg3][Peg3]YGWLDF-NH2 (lactam 20-24) [Side chain-cyclo([Lys20,Glu24]Exendin-4(1-28)-Peg3-Peg3-[Leu4]Gastrin6] :: 0.032

Identify measured hGLP-1 R EC50 (cAMP) associated with HGEGTFTSDLSRYLEEEAVKLFIEFLR[Peg3]YGWLDF-NH2 [[Arg12,27,Leu14,Lys20,Phe25,Tyr13]Exendin-4(1-27)-Peg3-[Leu4]Gastrin6]
0.058

Identify measured hGLP-1 R EC50 (cAMP) associated with HGEGTFTSDLSKQMEEEAV[Orn]LFIEWLKN[Peg3][Peg3]YGWLDF-NH2 [[Orn20]Exendin-4(1-28)-Peg3-Peg3-[Leu4]Gastrin6]
0.038

Identify measured hGLP-1 R EC50 (cAMP) associated with HGEGTFTSDLSKQLEEEAVRLFIEFLKXXYGWLDF (Peg3-Peg3 linker; C-terminal amide) [[Leu14,Phe25]Exendin-4(1-27)-Peg3-Peg3-[Leu4]Gastrin6]
0.026

Identify measured hGLP-1 R EC50 (cAMP) associated with HGEGTFTSELSKYLEEEAVRLFIEFLK[Peg3][Orn]YGWLDF-NH2 [[Glu9,Leu14,Phe25,Tyr13]Exendin-4(1-27)-Peg3-Orn-[Leu4]Gastrin6]
0.087

Identify measured hGLP-1 R EC50 (cAMP) associated with HGEGTFTSDLSKQLEEEAVRLFIEWLKNYGWXDF (Nle at position 4 of the Gastrin6 moiety; C-terminal amide) [[Leu14]Exendin-4(1-28)-[Nle4]Gastrin6]
0.052

Identify measured hGLP-1 R EC50 (cAMP) associated with HGEGTFTSDLSKYLEEEAVRLFIEWLK[Peg3][Peg3]YGWLDF-NH2 [[Tyr13,Leu14]Exendin-4(1-27)-Peg3-Peg3-[Leu4]Gastrin6]
0.05

Identify measured hGLP-1 R EC50 (cAMP) associated with HGEGTFTSDLSKYMEEEAVRLFIEWLKN[Peg3][Peg3]YGWLDF-NH2 [[Tyr13]Exendin-4(1-28)-Peg3-Peg3-[Leu4]Gastrin6]
0.046

Identify measured hGLP-1 R EC50 (cAMP) associated with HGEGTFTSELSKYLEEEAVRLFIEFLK[Peg3]WLDF-NH2 [[Glu9,Leu14,Phe25,Tyr13]Exendin-4(1-27)-Peg3-[Leu2]Gastrin4]
0.06
